Test system: SK-MEL-2 melanoma
Test: NCI tumour cell line growth inhibition, 48 h
For each entry below, report its GI50 value.

Compound | Target Or Test System | Measured Parameter | Result
COc1cc2c(cc1OCCCN1CCN(CCCOc3cc4c(cc3OC)C(=O)N3CC(F)(F)C[C@H]3C=N4)CC1)N=C[C@@H]1CC(F)(F)CN1C2=O | SK-MEL-2 melanoma | GI50 | 10.3 µM
O=C(Nc1ncc(Cc2cccc(C(F)(F)F)c2)s1)c1ccc2c(c1)OCCO2 | SK-MEL-2 melanoma | GI50 | 0.943 µM
COc1cc(/C=C2\CCCCC3=C2N=C2SC(C)=CN2C3c2cc(OC)c(OC)c(OC)c2)cc(OC)c1OC (centres undefined) | SK-MEL-2 melanoma | GI50 | 9.91 µM

Lab note: next compound to report on.
input: Consider the compound COc1ccc(-c2cc(=O)oc3c4c(ccc23)OCN(Cc2ccc(F)cc2)C4)cc1 . State its measured GI50.
output: 16.3 µM
